Test system: ACHN
assay notes: NCI 60 human tumor cell line screen (SRB): ACHN
Format: cell-based
condition summary: Renal, 48 hours, read-out: GI50 values (μM conc.)
Hi! Could you tag entries with GI50 below 2 µM as fulfilled, and those at or above as not fulfilled? Much appreciated.

Solved cases (5 shown):
molecule: COc1cc(Nc2ncccc2/C=C/C(=O)c2cc(OC)c(OC)c(OC)c2)cc(OC)c1OC
answer label: not fulfilled
//
molecule: COc1cc(C(=O)/C=C/c2cccnc2Nc2ccccc2)cc(OC)c1OC
answer label: fulfilled
//
molecule: COc1cc(/C=C/C(=O)c2cccnc2Nc2ccc(F)cc2)cc(OC)c1OC
answer label: not fulfilled
//
molecule: COc1cc(C(=O)/C=C/c2cccnc2Nc2ccc(Cl)cc2)cc(OC)c1OC
answer label: fulfilled
//
molecule: COc1ccc(Nc2ncccc2/C=C/C(=O)c2cc(OC)c(OC)c(OC)c2)cc1
answer label: fulfilled

Input: Strictly below 2 µM: is that where GI50 of COc1ccc(C(=O)/C=C/c2cccnc2Nc2cc(OC)c(OC)c(OC)c2)cc1 sits?
Output: fulfilled

----------
Reported values of log10 of GI50 for individual entries
System: HOP-62
assay notes: NCI 60 human tumor cell line screen (SRB): HOP-62
Format: cell-based
condition summary: HOP-62, Non-small cell lung, 48 hours, read-out: GI50 values (μM conc.)
Description: The in vitro anticancer activity studies for these chalcone analogues were carried out at the National Cancer Institute, USA. The chalcone compounds have been tested at NCI, USA, against sixty human tumor cell lines derived from nine cancer types (leukemia, non-small cell lung cancer, colon cancer, CNS cancer, melanoma cancer, ovarian cancer, renal cancer, prostate cancer and breast cancer). For these compounds results are expressed as growth inhibition (GI50) values as per NCI protocol. […]
// stored as log10 of GI50 expressed in µM

Before answering, review these 5 worked examples.
compound: COc1cc(Nc2ncccc2/C=C/C(=O)c2cc(OC)c(OC)c(OC)c2)cc(OC)c1OC [6v]
experimental system: HOP-62
log10 of GI50: 1.08
//
compound: COc1cc(/C=C/C(=O)c2cccnc2Nc2ccc(F)cc2)cc(OC)c1OC [7f]
experimental system: HOP-62
log10 of GI50: 0.46
//
compound: COc1cc(C(=O)/C=C/c2cccnc2Nc2ccc(Cl)cc2)cc(OC)c1OC [6ax]
experimental system: HOP-62
log10 of GI50: 0.22
//
compound: COc1ccc(C(=O)/C=C/c2cccnc2Nc2cc(OC)c(OC)c(OC)c2)cc1 [6z]
experimental system: HOP-62
log10 of GI50: 0.34
//
compound: COc1ccc(Nc2ncccc2/C=C/C(=O)c2cc(OC)c(OC)c(OC)c2)cc1 [6h]
experimental system: HOP-62
log10 of GI50: 0.25

Shift focus to the following entry.
Entry under test: COc1cc(C(=O)/C=C/c2cccnc2Nc2ccccc2)cc(OC)c1OC [6a] . Its log10 of GI50 was -0.19

----------
System: HOP-92
assay notes: NCI 60 human tumor cell line screen (SRB): HOP-92
Assay type: cell-based
condition summary: HOP-92, Non-small cell lung, 48 hours, read-out: GI50 values (μM conc.)
Below: a set of entries, each annotated with reported GI50.
All answers are understood in µM, so give the number only.

Please review the entries below; each comes with its answer.
molecule: COc1cc(C(=O)/C=C/c2cccnc2Nc2ccc(Cl)cc2)cc(OC)c1OC
experimental system: HOP-92
recorded result: 0.51
--
molecule: COc1cc(Nc2ncccc2/C=C/C(=O)c2cc(OC)c(OC)c(OC)c2)cc(OC)c1OC
experimental system: HOP-92
recorded result: 0.94
--
molecule: COc1cc(/C=C/C(=O)c2cccnc2Nc2ccc(F)cc2)cc(OC)c1OC
experimental system: HOP-92
recorded result: 1.67
--
molecule: COc1cc(C(=O)/C=C/c2cccnc2Nc2ccccc2)cc(OC)c1OC
experimental system: HOP-92
recorded result: 0.39
--
molecule: COc1ccc(Nc2ncccc2/C=C/C(=O)c2cc(OC)c(OC)c(OC)c2)cc1
experimental system: HOP-92
recorded result: 1.59

Consider now this further molecule.
The reported GI50 of the molecule COc1ccc(C(=O)/C=C/c2cccnc2Nc2cc(OC)c(OC)c(OC)c2)cc1 was 2.4

----------
Test system: RPMI-8226
assay notes: NCI 60 human tumor cell line screen (SRB): RPMI-8226
Type: cell-based
condition summary: RPMI-8226, Leukemia, 48 hours, read-out: GI50 values (μM conc.)
// values below are reported GI50
I only need the number, in µM, no unit after it.

Here are 5 compounds together with their reported answers.
molecule: COc1cc(C(=O)/C=C/c2cccnc2Nc2ccc(Cl)cc2)cc(OC)c1OC
GI50, µM: 0.65
--
molecule: COc1cc(Nc2ncccc2/C=C/C(=O)c2cc(OC)c(OC)c(OC)c2)cc(OC)c1OC
GI50, µM: 6.83
--
molecule: COc1ccc(Nc2ncccc2/C=C/C(=O)c2cc(OC)c(OC)c(OC)c2)cc1
GI50, µM: 1.08
--
molecule: COc1cc(/C=C/C(=O)c2cccnc2Nc2ccc(F)cc2)cc(OC)c1OC
GI50, µM: 2.43
--
molecule: COc1cc(C(=O)/C=C/c2cccnc2Nc2ccccc2)cc(OC)c1OC
GI50, µM: 0.35

# ---- query compound ----
Observed GI50 on RPMI-8226, entry COc1ccc(C(=O)/C=C/c2cccnc2Nc2cc(OC)c(OC)c(OC)c2)cc1 , equals 0.85

----------
Tested on: NCI-H322M
assay notes: NCI 60 human tumor cell line screen (SRB): NCI-H322M
Format: cell-based
condition summary: Non-small cell lung, 48 hours, read-out: GI50 values (μM conc.)
property: GI50 (µM)
Kindly provide the numeric value in µM only, without the unit symbol.

compound: COc1cc(C(=O)/C=C/c2cccnc2Nc2ccccc2)cc(OC)c1OC [6a]
units of measure: µM
GI50: 1.9
--
compound: COc1cc(Nc2ncccc2/C=C/C(=O)c2cc(OC)c(OC)c(OC)c2)cc(OC)c1OC [6v]
units of measure: µM
GI50: 21.1
--
compound: COc1ccc(C(=O)/C=C/c2cccnc2Nc2cc(OC)c(OC)c(OC)c2)cc1 [6z]
units of measure: µM
GI50: 7.38
--
compound: COc1ccc(Nc2ncccc2/C=C/C(=O)c2cc(OC)c(OC)c(OC)c2)cc1 [6h]
units of measure: µM
GI50: 2.13
--
compound: COc1cc(C(=O)/C=C/c2cccnc2Nc2ccc(Cl)cc2)cc(OC)c1OC [6ax]
units of measure: µM
GI50: 1.95

The record that follows has no GI50 shown yet.
Tested on NCI-H322M: COc1cc(/C=C/C(=O)c2cccnc2Nc2ccc(F)cc2)cc(OC)c1OC [7f] . Observed GI50: 4.83

----------
System: OVCAR-8
assay notes: NCI 60 human tumor cell line screen (SRB): OVCAR-8
Format: cell-based
condition summary: OVCAR-8, Ovarian, 48 hours, read-out: GI50 values (μM conc.)
// reported GI50 for each item listed
Answer in µM, number only, no unit symbol.

compound: COc1ccc(Nc2ncccc2/C=C/C(=O)c2cc(OC)c(OC)c(OC)c2)cc1 [6h]
property: GI50
recorded result: 1.56

Kindly note the recorded GI50 for COc1cc(/C=C/C(=O)c2cccnc2Nc2ccc(F)cc2)cc(OC)c1OC [7f] , which is 2.69

Entry COc1cc(C(=O)/C=C/c2cccnc2Nc2ccccc2)cc(OC)c1OC [6a] , GI50 reported as 1.27

// COc1cc(C(=O)/C=C/c2cccnc2Nc2ccc(Cl)cc2)cc(OC)c1OC [6ax] : GI50 value = 1.63

Value of GI50 reported for the compound COc1ccc(C(=O)/C=C/c2cccnc2Nc2cc(OC)c(OC)c(OC)c2)cc1 [6z] is 2.2

// GI50 lookup, compound = COc1cc(Nc2ncccc2/C=C/C(=O)c2cc(OC)c(OC)c(OC)c2)cc(OC)c1OC [6v] , result: 6.7

----------
Tested on: NCI-H23
assay notes: NCI 60 human tumor cell line screen (SRB): NCI-H23
Assay type: cell-based
condition summary: NCI-H23, Non-small cell lung, 48 hours, read-out: GI50 values (μM conc.)
Threshold check on GI50: strictly below 2 µM is t; on or above 2 µM is f.

For orientation, consider the following solved cases.
molecule: COc1cc(C(=O)/C=C/c2cccnc2Nc2ccccc2)cc(OC)c1OC
answer label: t

molecule: COc1ccc(C(=O)/C=C/c2cccnc2Nc2cc(OC)c(OC)c(OC)c2)cc1
answer label: f

molecule: COc1ccc(Nc2ncccc2/C=C/C(=O)c2cc(OC)c(OC)c(OC)c2)cc1
answer label: t

molecule: COc1cc(/C=C/C(=O)c2cccnc2Nc2ccc(F)cc2)cc(OC)c1OC
answer label: f

molecule: COc1cc(Nc2ncccc2/C=C/C(=O)c2cc(OC)c(OC)c(OC)c2)cc(OC)c1OC
answer label: f

Okay, now this compound:
Input: Determine whether this compound shows GI50 lower than 2 µM (ties excluded): COc1cc(C(=O)/C=C/c2cccnc2Nc2ccc(Cl)cc2)cc(OC)c1OC
Output: t
